# measurementTarget: human kinin B1R (Homo sapiens, UniProt P46663)
# Sequence (P46663 1-353): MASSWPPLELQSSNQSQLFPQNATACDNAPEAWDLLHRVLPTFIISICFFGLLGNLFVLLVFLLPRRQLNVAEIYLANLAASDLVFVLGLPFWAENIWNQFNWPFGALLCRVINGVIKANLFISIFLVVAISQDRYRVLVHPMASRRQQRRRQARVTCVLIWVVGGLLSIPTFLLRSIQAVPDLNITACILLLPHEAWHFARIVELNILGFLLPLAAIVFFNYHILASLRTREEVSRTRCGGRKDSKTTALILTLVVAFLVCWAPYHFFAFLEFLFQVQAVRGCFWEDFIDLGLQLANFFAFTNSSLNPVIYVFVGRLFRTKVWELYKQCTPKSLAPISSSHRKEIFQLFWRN
Square brackets hold non-standard residues; d marks the D form. Peptide text beside a SMILES is read from it. ξ: configuration not given here. Oic = O=C(O)[C@@H]1C[C@@H]2CCCC[C@@H]2N1; d2Nal = N[C@H](Cc1ccc2ccccc2c1)C(=O)O; ξαMeF = CC(N)(Cc1ccccc1)C(=O)O; Orn = NCCC[C@H](N)C(=O)O; βAla = NCCC(=O)O; Mpa = O=C(O)CCS
# IC50 per entry
Expressed in nM, but write only the number.

# count of solved cases: 3
CNCC(=O)N[C@@H](CCCCN)C(=O)N[C@@H](CCCNC(=N)N)C(=O)N1CCC[C@H]1C(=O)N1CCC[C@H]1C(=O)NCC(=O)N[C@@H](Cc1ccccc1)C(=O)N[C@@H](CO)C(=O)N1CCC[C@H]1C(=O)N[C@H](Cc1ccccc1)C(=O)O = 0.5
CC[C@H](C)[C@H](NC(=O)[C@@H](Cc1ccc2ccccc2c1)NC(=O)[C@H](CO)NC(=O)C(C)(Cc1ccccc1)NC(=O)CNC(=O)[C@@H]1CCCN1C(=O)[C@@H]1C[C@@H]2CCCC[C@@H]2N1C(=O)[C@H](CCCNC(=N)N)NC(=O)[C@H](CCCN)NC(C)=O)C(=O)O (some centres unmarked) [R954] (Ac-[Orn]R[Oic]PG[ξαMeF]S[d2Nal]I-OH) = 2
N=C(N)NCCC[C@H](NC(=O)[C@H](CCCCN)NC(=O)CCNC(=O)CCS)C(=O)N1CCC[C@H]1C(=O)N1CCC[C@H]1C(=O)NCC(=O)N[C@@H](Cc1ccccc1)C(=O)N[C@@H](CO)C(=O)N1CCC[C@H]1C(=O)N[C@H](Cc1ccccc1)C(=O)O = 0.8

Field: next molecule
INPUT: Entry CC[C@H](C)[C@H](NC(=O)[C@@H](Cc1ccc2ccccc2c1)NC(=O)[C@H](CO)NC(=O)C(C)(Cc1ccccc1)NC(=O)CNC(=O)[C@@H]1CCCN1C(=O)[C@@H]1C[C@@H]2CCCC[C@@H]2N1C(=O)[C@H](CCCNC(=N)N)NC(=O)[C@H](CCCN)NC(=O)CCNC(=O)CCS)C(=O)O (some centres unmarked) [MAB7122] ([Mpa][βAla][Orn]R[Oic]PG[ξαMeF]S[d2Nal]I-OH) has what IC50?
OUTPUT: 10

----------
Sequence of the target: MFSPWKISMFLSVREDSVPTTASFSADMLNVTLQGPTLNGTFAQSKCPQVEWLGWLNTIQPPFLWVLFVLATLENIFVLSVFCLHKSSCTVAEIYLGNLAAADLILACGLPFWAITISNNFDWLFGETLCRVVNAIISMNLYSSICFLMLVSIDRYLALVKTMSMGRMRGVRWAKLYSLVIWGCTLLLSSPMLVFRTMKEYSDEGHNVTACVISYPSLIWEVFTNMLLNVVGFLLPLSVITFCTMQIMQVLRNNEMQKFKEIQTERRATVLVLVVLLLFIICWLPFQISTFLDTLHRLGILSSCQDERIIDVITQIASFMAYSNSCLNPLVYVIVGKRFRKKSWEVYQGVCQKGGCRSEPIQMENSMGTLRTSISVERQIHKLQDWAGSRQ
Square brackets hold non-standard residues; d marks the D form. Peptide text beside a SMILES is read from it. Hyp = O=C(O)[C@@H]1C[C@@H](O)CN1; 2Thi = N[C@@H](Cc1cccs1)C(=O)O; Gly(N-cHex) = O=C(O)CNC1CCCCC1; βAla = NCCC(=O)O; Mpa = O=C(O)CCS
The compounds listed here are annotated with their IC50.
Output spec: scalar in nM, unitless text.

N=C(N)NCCC[C@H](NC(=O)[C@H](Cc1cccs1)NC(=O)CN(C(=O)[C@H](CO)NC(=O)[C@H](Cc1cccs1)NC(=O)CNC(=O)[C@@H]1C[C@@H](O)CN1C(=O)[C@@H]1CCCN1C(=O)[C@@H](N)CCCNC(=N)N)C1CCCCC1)C(=O)O [NG291] (H-RP[Hyp]G[2Thi]S[Gly(N-cHex)][2Thi]R-OH) = 2

Now look at this one.
INPUT: IC50 for N=C(N)NCCC[C@H](NC(=O)[C@H](Cc1cccs1)NC(=O)CN(C(=O)[C@H](CO)NC(=O)[C@H](Cc1cccs1)NC(=O)CNC(=O)[C@@H]1C[C@@H](O)CN1C(=O)[C@@H]1CCCN1C(=O)[C@H](CCCNC(=N)N)NC(=O)CCNC(=O)CCS)C1CCCCC1)C(=O)O [MAB7053] ([Mpa][βAla]RP[Hyp]G[2Thi]S[Gly(N-cHex)][2Thi]R-OH) ?
OUTPUT: 1180
